- measurement description: activity coefficient (dimensionless); of the first substance listed, at infinite dilution; xn = mol fraction of the nth substance listed
- experimental conditions: 343.15 K; Liquid; Chromatography; x1 = 0
Examples of compounds with documented activity coefficient follow.
When you answer, write just the number.

Consider the following illustrative entries.
[
  {
    "compound": "CO [methanol] + CCCOC[n+]1ccc(N(C)C)cc1.O=S(=O)([N-]S(=O)(=O)C(F)(F)F)C(F)(F)F",
    "activity coefficient": 1.16
  },
  {
    "compound": "ClC(Cl)Cl [trichloromethane] + CCCCCCCCn1cc[n+](COCCCOC[n+]2ccn(CCCCCCCC)c2C)c1C.O=S(=O)([N-]S(=O)(=O)C(F)(F)F)C(F)(F)F.O=S(=O)([N-]S(=O)(=O)C(F)(F)F)C(F)(F)F",
    "activity coefficient": 0.39
  },
  {
    "compound": "CCCCCCCCCCC [undecane] + Cn1cc[n+](COCCCOC[n+]2ccn(C)c2)c1.O=S(=O)([N-]S(=O)(=O)C(F)(F)F)C(F)(F)F.O=S(=O)([N-]S(=O)(=O)C(F)(F)F)C(F)(F)F",
    "activity coefficient": 162
  },
  {
    "compound": "CCCCO [butan-1-ol] + CCCCCCCCn1cc[n+](COCCCOC[n+]2ccn(CCCCCCCC)c2C)c1C.O=S(=O)([N-]S(=O)(=O)C(F)(F)F)C(F)(F)F.O=S(=O)([N-]S(=O)(=O)C(F)(F)F)C(F)(F)F",
    "activity coefficient": 0.69
  },
  {
    "compound": "CCC(C)=O [butanone] + CCCOC[n+]1ccn(C)c1.N#C[N-]C#N",
    "activity coefficient": 1.12
  },
  {
    "compound": "Cc1ccccc1 [toluene] + CCCOC[n+]1ccc(N(C)C)cc1.O=S(=O)([N-]S(=O)(=O)C(F)(F)F)C(F)(F)F",
    "activity coefficient": 1.05
  }
]

Task: Sample CCC(C)=O [butanone] + CCCOC[n+]1ccn(C)c1.F[B-](F)(F)F — what was its activity coefficient?
Result: 1.49

###

- measurement description: activity coefficient (dimensionless); of the first substance listed, at infinite dilution; xn = mol fraction of the nth substance listed
- experimental conditions: 343.15 K; Liquid; Chromatography; x1 = 0
measured endpoint: activity coefficient

Task: // activity coefficient lookup, key: CCCC(C)=O [pentan-2-one] + CCCOC[n+]1ccn(Cc2ccccc2)c1.F[B-](F)(F)F
Result: 1.82

Task: Okay, and CCCCCCCCCC [decane] + N#C[N-]C#N.N#C[N-]C#N.c1ccc(Cn2cc[n+](COCCCOC[n+]3ccn(Cc4ccccc4)c3)c2)cc1 ?
Result: 321

Task: // repeat for CC(C)CO [2-methyl-1-propanol] + CCCCCCCCn1cc[n+](COCCCOC[n+]2ccn(CCCCCCCC)c2C)c1C.N#C[N-]C#N.N#C[N-]C#N and report
Result: 0.35

Task: Next: ClCCl [dichloromethane] + CCCCCCCCn1cc[n+](COCCC)c1C.O=S(=O)([N-]S(=O)(=O)C(F)(F)F)C(F)(F)F
Result: 0.48

Task: Subsequent entry: Cc1ccccc1 [toluene] + CN(C)c1cc[n+](COCCCOC[n+]2ccc(N(C)C)cc2)cc1.O=S(=O)([N-]S(=O)(=O)C(F)(F)F)C(F)(F)F.O=S(=O)([N-]S(=O)(=O)C(F)(F)F)C(F)(F)F
Result: 0.96

Task: Also, c1ccsc1 [thiophene] + CCCCCCCCn1cc[n+](COCCC)c1C.N#C[N-]C#N please.
Result: 0.64

###

- measurement description: activity coefficient (dimensionless); of the first substance listed, at infinite dilution; xn = mol fraction of the nth substance listed
- experimental conditions: 343.15 K; Liquid; Chromatography; x1 = 0
activity coefficient under 2 gets fulfilled, anything at or over 2 gets not fulfilled.

Worked examples, 5 compounds total:
[
  {
    "compound": "ClCCl [dichloromethane] + Cn1cc[n+](COCCCOC[n+]2ccn(C)c2)c1.O=S(=O)([N-]S(=O)(=O)C(F)(F)F)C(F)(F)F.O=S(=O)([N-]S(=O)(=O)C(F)(F)F)C(F)(F)F",
    "group label": "fulfilled"
  },
  {
    "compound": "CCN(CC)CC [triethylamine] + Cn1cc[n+](COCCCOC[n+]2ccn(C)c2)c1.N#C[N-]C#N.N#C[N-]C#N",
    "group label": "not fulfilled"
  },
  {
    "compound": "CC1CCCC1 [methylcyclopentane] + CCCCCCCCn1cc[n+](COCCC)c1C.O=S(=O)([N-]S(=O)(=O)C(F)(F)F)C(F)(F)F",
    "group label": "not fulfilled"
  },
  {
    "compound": "Cc1cccc(C)c1 [1,3-dimethylbenzene] + CCCOC[n+]1ccn(C)c1.F[B-](F)(F)F",
    "group label": "not fulfilled"
  },
  {
    "compound": "CCC(=O)CC [pentan-3-one] + Cn1cc[n+](COCCCOC[n+]2ccn(C)c2)c1.O=S(=O)([N-]S(=O)(=O)C(F)(F)F)C(F)(F)F.O=S(=O)([N-]S(=O)(=O)C(F)(F)F)C(F)(F)F",
    "group label": "fulfilled"
  }
]

Task: activity coefficient strictly < 2 for this compound? C1COCCO1 [1,4-dioxane] + CCCOC[n+]1ccn(C)c1.O=S(=O)([N-]S(=O)(=O)C(F)(F)F)C(F)(F)F
Result: fulfilled

###

- measurement description: activity coefficient (dimensionless); of the first substance listed, at infinite dilution; xn = mol fraction of the nth substance listed
- experimental conditions: 343.15 K; Liquid; Chromatography; x1 = 0
Rule: measured activity coefficient below 1 gets rule met; anything equal to or greater than 1 gets rule not met.

Worked set:
[
  {
    "molecule": "Cc1ccc(C)cc1 [1,4-dimethylbenzene] + CCCOC[n+]1ccn(C)c1.O=S(=O)([N-]S(=O)(=O)C(F)(F)F)C(F)(F)F",
    "group label": "rule not met"
  },
  {
    "molecule": "CO [methanol] + CCCOC[n+]1ccn(C)c1.N#C[N-]C#N",
    "group label": "rule met"
  },
  {
    "molecule": "CC(C)CC(C)(C)C [2,2,4-trimethylpentane] + CN(C)c1cc[n+](COCCCOC[n+]2ccc(N(C)C)cc2)cc1.O=S(=O)([N-]S(=O)(=O)C(F)(F)F)C(F)(F)F.O=S(=O)([N-]S(=O)(=O)C(F)(F)F)C(F)(F)F",
    "group label": "rule not met"
  }
]

Task: Please check: activity coefficient for CC(C)O [propan-2-ol] + CCCOC[n+]1ccn(C)c1.O=S(=O)([N-]S(=O)(=O)C(F)(F)F)C(F)(F)F , strictly under 1 or not?
Result: rule not met

Task: # iterate: c1ccncc1 [pyridine] + CN(C)c1cc[n+](COCCCOC[n+]2ccc(N(C)C)cc2)cc1.O=S(=O)([N-]S(=O)(=O)C(F)(F)F)C(F)(F)F.O=S(=O)([N-]S(=O)(=O)C(F)(F)F)C(F)(F)F
Result: rule met

Task: Follow-up item: ClC(Cl)(Cl)Cl [tetrachloromethane] + CCCCCCCCn1cc[n+](COCCCOC[n+]2ccn(CCCCCCCC)c2C)c1C.N#C[N-]C#N.N#C[N-]C#N
Result: rule not met

Task: # iterate: CCCCCCCCCC [decane] + CCCCCCCCn1cc[n+](COCCC)c1C.N#C[N-]C#N
Result: rule not met

###

- measurement description: activity coefficient (dimensionless); of the first substance listed, at infinite dilution; xn = mol fraction of the nth substance listed
- experimental conditions: 323.15 K; Liquid; Chromatography; x1 = 0
Property: activity coefficient; scope: individual compounds
Note: the reply should be a number with no unit written.

Examples with their reported activity coefficient follow.
[
  {
    "compound": "CC(C)OC(C)C [diisopropyl ether] + CCCOC[n+]1ccn(Cc2ccccc2)c1.F[B-](F)(F)F",
    "activity coefficient": 17.6
  },
  {
    "compound": "CCCCCCCCCCC [undecane] + CCCCCCCCn1cc[n+](COCCC)c1C.N#C[N-]C#N",
    "activity coefficient": 20.6
  },
  {
    "compound": "CC(C)CO [2-methyl-1-propanol] + N#C[N-]C#N.N#C[N-]C#N.c1ccc(Cn2cc[n+](COCCCOC[n+]3ccn(Cc4ccccc4)c3)c2)cc1",
    "activity coefficient": 1.79
  },
  {
    "compound": "CCCCCCCCC [nonane] + CCCOC[n+]1ccn(Cc2ccccc2)c1.F[B-](F)(F)F",
    "activity coefficient": 179
  },
  {
    "compound": "CCC(C)=O [butanone] + CCCOC[n+]1ccc(N(C)C)cc1.O=S(=O)([N-]S(=O)(=O)C(F)(F)F)C(F)(F)F",
    "activity coefficient": 0.51
  },
  {
    "compound": "CCCCCCCCCCC [undecane] + CCCOC[n+]1ccn(C)c1.F[B-](F)(F)F",
    "activity coefficient": 911
  }
]

Field: next compound
Task: I am curious: what activity coefficient value has been reported for CC1CCCC1 [methylcyclopentane] + CCCOC[n+]1ccc(N(C)C)cc1.O=S(=O)([N-]S(=O)(=O)C(F)(F)F)C(F)(F)F ?
Result: 7.35
